Value source: PubChem BioAssay AID1159580

measurement_description: chemical genetic growth profiling, strain panel (AID 1159580);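 also: tested at 20 µM; growth read once vehicle control cultures reached saturation at 30 °C; 1 = growth at the plate median or of vehicle wells; lower values mean less growth of the strain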
condition_summary: S. cerevisiae deletion strains, growth OD, locus YHR094C, strain hxt1, hits give low values
The campaign covered roughly 5,500 compounds. About 2,000 (36%) were called active. Inconclusive results (about 18%) are left out. The list shows a part of the results.
reported_endpoint: normalized growth
Keep it simple and answer with nothing but the number.

Enquiry: Determine from records and report normalized growth for `CC(=O)OC/C=C(C)/C=C/C=C(C)/C=C/C1=C(C)CCCC1(C)C`
Return: 0.991

Enquiry: Determine from records and report normalized growth for `COc1ccc(/C=C/c2cc(O)cc(O[C@@H]3O[C@H](CO)[C@@H](O)[C@H](O)[C@H]3O)c2)cc1O`
Return: 1.02

Enquiry: Determine from records and report normalized growth for `CS(=O)(=O)OCCCCOS(C)(=O)=O`
Return: 0.981

Enquiry: Determine from records and report normalized growth for `CO[C@@H]1[C@@H](O[C@@H]2O[C@H](C)[C@@H](O[C@H]3C[C@@](C)(O)[C@H](O)[C@H](C)O3)[C@H](N(C)C)[C@H]2O)[C@@H](CC=O)C[C@@H](C)[C@@H](O[C@H]2CC[C@H](N(C)C)[C@@H](C)O2)/C=C/C=C/C[C@H](C)OC(=O)C[C@H]1O`
Return: 1

Enquiry: Determine from records and report normalized growth for `CCOP(=S)(OCC)SCCSCC`
Return: 0.991

Enquiry: Determine from records and report normalized growth for CC(=O)O[C@H]1CC[C@@]2(C)C(=CCC3C2CC[C@@]2(C)C3CC[C@@H]2C(C)CCCC(C)C)C1 (some centres not stated)
Return: 1.01

Enquiry: Determine from records and report normalized growth for `CC1=C(/C=C/C(C)=C/C=C/C(C)=C/C=C/C=C(C)/C=C/C=C(C)/C=C/C2=C(C)CCCC2(C)C)C(C)(C)CCC1`
Return: 0.999

Enquiry: Determine from records and report normalized growth for `COc1cc(/C=C/C(=O)O)cc(OC)c1OC`
Return: 1.02

Enquiry: Determine from records and report normalized growth for CC(=O)OCC(=O)[C@@]12OC(C)(C)O[C@@H]1CC1C3C[C@H](F)C4=CC(=O)C=C[C@]4(C)[C@@]3(F)[C@@H](O)C[C@@]12C (some centres not stated)
Return: 1.02

Enquiry: Determine from records and report normalized growth for CC[C@@H]1[C@@H](O)N2C3C[C@H]1C1C(O)[C@]4(C[C@@H]12)c1ccccc1N(C)[C@@H]34 (some centres not stated)
Return: 0.983

Enquiry: Determine from records and report normalized growth for `Cc1ccc(C(C)C)cc2c(C)ccc1-2`
Return: 1.02

Enquiry: Determine from records and report normalized growth for `C=CC1=C(C)/C(=C/c2[nH]c(Cc3[nH]c(/C=C4\NC(=O)C(C)=C4C=C)c(C)c3CCC(=O)O)c(CCC(=O)O)c2C)NC1=O`
Return: 1.01

###

measurement_description: chemical genetic growth profiling, strain panel (AID 1159580);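 also: tested at 20 µM; growth read once vehicle control cultures reached saturation at 30 °C; 1 = growth at the plate median or of vehicle wells; lower values mean less growth of the strain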
condition_summary: S. cerevisiae deletion strains, growth OD, locus YJR066W, strain TOR1 (second series), hits give low values
Among all 5,500 compounds or so, about 2,000 (36%) were called active. Not shown: some 18% with an inconclusive outcome. The list shows a part of the results.
normalized growth under 0.9 gets 1, anything at or over 0.9 gets -1.

Enquiry: Quick check: normalized growth of `COc1cc(C(=O)Oc2c(Cl)cc(Cl)cc2C=Nc2ccc([N+](=O)[O-])cc2C#N)cc(OC)c1OC` under 0.9?
Return: 1

Enquiry: Quick check: normalized growth of `O=C(CO/N=C\c1ccc(Cl)cc1Cl)NNC(=S)Nc1cc(Cl)ccc1Cl` under 0.9?
Return: -1

Enquiry: Quick check: normalized growth of CCC1CCC(C)N(C(=S)Nc2ccc(Br)cc2C)C1 (stereo not drawn) under 0.9?
Return: -1

Enquiry: Quick check: normalized growth of OC(c1ccc(C(F)(F)F)cc1)c1cccc(C(F)(F)F)c1 (stereo not drawn) under 0.9?
Return: -1

Enquiry: Quick check: normalized growth of `COc1cc(C(=O)Oc2c(Cl)cc(Cl)cc2C=Nc2cccc([N+](=O)[O-])c2)cc(OC)c1OC` under 0.9?
Return: 1

Enquiry: Quick check: normalized growth of `CCc1cc2c(cc1-c1csc(C/C(N)=N\O)n1)C(C)(C)CCC2(C)C` under 0.9?
Return: 1

Enquiry: Quick check: normalized growth of `O=C(CCSc1cccs1)Nc1cccc(C(F)(F)F)c1` under 0.9?
Return: -1

Enquiry: Quick check: normalized growth of `Cc1cc(C(=O)O/N=C(/N)c2ccc(C(C)(C)C)cc2)no1` under 0.9?
Return: 1

Enquiry: Quick check: normalized growth of `N=C(N)SCc1nc(-c2ccc(Cl)cc2)no1` under 0.9?
Return: -1

Enquiry: Quick check: normalized growth of `C/C(=N/OC(=O)Nc1ccc(Cl)cc1)c1ccc2c(c1)CCO2` under 0.9?
Return: 1
